The origin of these recorded values is patent US11912693B2.

Target: human sphingosine-1-phosphate receptor 1 (S1P1) (Homo sapiens (Human))
Sequence (P21453 whole entry, looked up): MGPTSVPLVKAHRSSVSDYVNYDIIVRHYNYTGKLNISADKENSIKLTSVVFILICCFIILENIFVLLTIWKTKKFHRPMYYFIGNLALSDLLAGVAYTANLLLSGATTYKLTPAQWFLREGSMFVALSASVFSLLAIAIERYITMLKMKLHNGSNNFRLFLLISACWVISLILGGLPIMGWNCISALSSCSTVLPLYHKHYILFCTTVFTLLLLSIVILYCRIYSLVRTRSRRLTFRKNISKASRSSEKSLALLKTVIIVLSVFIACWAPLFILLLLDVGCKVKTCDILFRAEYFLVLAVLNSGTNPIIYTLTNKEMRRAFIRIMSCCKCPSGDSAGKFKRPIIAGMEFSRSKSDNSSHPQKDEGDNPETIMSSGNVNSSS
Sequence (P32121 whole entry partner, looked up): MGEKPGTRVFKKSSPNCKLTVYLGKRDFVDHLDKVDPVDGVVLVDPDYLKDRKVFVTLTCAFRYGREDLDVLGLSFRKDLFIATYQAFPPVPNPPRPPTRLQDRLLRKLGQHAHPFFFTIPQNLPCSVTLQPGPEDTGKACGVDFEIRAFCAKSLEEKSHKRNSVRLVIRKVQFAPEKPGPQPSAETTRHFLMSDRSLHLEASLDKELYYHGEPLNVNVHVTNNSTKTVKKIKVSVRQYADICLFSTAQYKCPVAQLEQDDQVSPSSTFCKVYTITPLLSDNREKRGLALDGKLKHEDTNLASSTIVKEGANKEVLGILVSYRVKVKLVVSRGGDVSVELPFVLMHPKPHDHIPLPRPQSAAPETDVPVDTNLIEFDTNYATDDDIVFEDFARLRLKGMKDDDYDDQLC
Assay: β-Arrestin2 recruitment assay (PathHunter), S1P1 CHO-K1 cells
Assay type: cell-based
Conditions: β-arrestin2 recruitment, S1P1 CHO-K1 cells
Recorded endpoint: hS1P1 B-arrestin2 pEC50

Observe how each entry below is paired with its result.
Molecule	Recorded endpoint	Reported
Cn1nnc2cc(-c3noc(-c4ccccc4Br)n3)ccc21	hS1P1 B-arrestin2 pEC50	>5
CC1(C)Oc2ccc(-c3nc(-c4ccncc4)no3)cc2C1=O	hS1P1 B-arrestin2 pEC50	<5
CCC1(CC)CC(=O)c2cc(-c3nc(-c4cnccc4OC)no3)ccc2O1	hS1P1 B-arrestin2 pEC50	<5

For each of the molecules below, note its hS1P1 B-arrestin2 pEC50.
1. CC(C)Cn1nnc2cc(-c3nc(-c4ccccc4Cl)no3)ccc21
2. CCCn1nnc2cc(-c3nc(-c4cccc(C(F)(F)F)c4)no3)ccc21
3. FC(F)(F)Oc1ccccc1-c1nc(-c2ccc3c(c2)nnn3C2CCCC2)no1
4. CCC1(CC)CC(=O)c2cc(-c3nc(-c4ccncc4)no3)ccc2O1
5. Cc1ccccc1-c1nc(-c2ccc3c(c2)nnn3C(C)(C)CO)no1

["<5", "<5", ">5", ">5", "<5"]
